target: the molecule itself; assay: SEC; Superdex 200 10/300 GL, 50 mM Tris-HCl pH 8.0, 300 mM NaCl, 10 mM MgCl2; oligomeric state calculated from elution volumes of proteins of known size; addition of UTP, Glc-1-P or UDP-Glc did not affect the oligomerization of the WT
Listed below: stoichiometry N values for each entry.
# print the numeric value only

stoichiometry N reported for this protein PaUGP Q75A (enzyme, UDP-glucose pyrophosphorylase of Pseudomonas aeruginosa (galU), residues 1-279, point mutant of Strep-PaUGP; Same construct as m1; source: E. coli BL21(DE3), purified (Strep-Tactin Sepharose); not shown: Strep-tagII, N-terminal, kept) MIKKCLFPAAGYGTRFLPATKAMPKEMLPVVNKPLIQYAVEEALEAGLSEIGIVTGRGKRSLEDHFDISYELEHAIRNTDKEKYLVGIRRLIDECTFAYTRQVEMKGLGHAILTGRPLIGDEPFAVVLADDLCLNLEGDSVLKQMVKLYNQFRCSIVAIQEVPPEETNKYGVIAGEMIRDDIFRVNTMVEKPKPEEAPSNLAIIGRYILTPDIFDLIEQTEPGKGGEIQITDALMKQAQDGCVLAYKFKGKRFDCGSAEGYIEATNFCYENLYKTGKAH : 4.2

stoichiometry N reported for this protein PaUGP N266A (enzyme, UDP-glucose pyrophosphorylase of Pseudomonas aeruginosa (galU), residues 1-279, point mutant of Strep-PaUGP; Same construct as m1; source: E. coli BL21(DE3), purified (Strep-Tactin Sepharose); not shown: Strep-tagII, N-terminal, kept) MIKKCLFPAAGYGTRFLPATKAMPKEMLPVVNKPLIQYAVEEALEAGLSEIGIVTGRGKRSLEDHFDISYELEHQIRNTDKEKYLVGIRRLIDECTFAYTRQVEMKGLGHAILTGRPLIGDEPFAVVLADDLCLNLEGDSVLKQMVKLYNQFRCSIVAIQEVPPEETNKYGVIAGEMIRDDIFRVNTMVEKPKPEEAPSNLAIIGRYILTPDIFDLIEQTEPGKGGEIQITDALMKQAQDGCVLAYKFKGKRFDCGSAEGYIEATAFCYENLYKTGKAH : 4

stoichiometry N reported for this protein PaUGP N266D (enzyme, UDP-glucose pyrophosphorylase of Pseudomonas aeruginosa (galU), residues 1-279, point mutant of Strep-PaUGP; Same construct as m1; source: E. coli BL21(DE3), purified (Strep-Tactin Sepharose); not shown: Strep-tagII, N-terminal, kept) MIKKCLFPAAGYGTRFLPATKAMPKEMLPVVNKPLIQYAVEEALEAGLSEIGIVTGRGKRSLEDHFDISYELEHQIRNTDKEKYLVGIRRLIDECTFAYTRQVEMKGLGHAILTGRPLIGDEPFAVVLADDLCLNLEGDSVLKQMVKLYNQFRCSIVAIQEVPPEETNKYGVIAGEMIRDDIFRVNTMVEKPKPEEAPSNLAIIGRYILTPDIFDLIEQTEPGKGGEIQITDALMKQAQDGCVLAYKFKGKRFDCGSAEGYIEATDFCYENLYKTGKAH : 4.2

stoichiometry N reported for this protein PaUGP E63D (enzyme, UDP-glucose pyrophosphorylase of Pseudomonas aeruginosa (galU), residues 1-279, point mutant of Strep-PaUGP; Same construct as m1; source: E. coli BL21(DE3), purified (Strep-Tactin Sepharose); not shown: Strep-tagII, N-terminal, kept) MIKKCLFPAAGYGTRFLPATKAMPKEMLPVVNKPLIQYAVEEALEAGLSEIGIVTGRGKRSLDDHFDISYELEHQIRNTDKEKYLVGIRRLIDECTFAYTRQVEMKGLGHAILTGRPLIGDEPFAVVLADDLCLNLEGDSVLKQMVKLYNQFRCSIVAIQEVPPEETNKYGVIAGEMIRDDIFRVNTMVEKPKPEEAPSNLAIIGRYILTPDIFDLIEQTEPGKGGEIQITDALMKQAQDGCVLAYKFKGKRFDCGSAEGYIEATNFCYENLYKTGKAH : 3.9

Every entry's value here was drawn from paper PMC11005391.
